test system: HUVEC; experiment: Antiangiogenic activity in human HUVEC cells assessed as inhibition of cell adhesion at 100 uM upto 3 hrs by migration assay; type: functional
Square brackets hold non-standard residues; d marks the D form. Peptide text beside a SMILES is read from it. Abu = CC[C@H](N)C(=O)O
Measured metric: inhibition at 100 µM (%)
Unit % implied. Number only.

Value (inhibition at 100 µM, HUVEC) for record CC[C@H](NC(=O)[C@@H](N)Cc1ccccc1)C(=O)N[C@@H](CC(N)=O)C(=O)N[C@H](C(=O)N[C@@H](CC(N)=O)C(=O)O)[C@@H](C)CC (H-F[Abu]NIN-OH) = 3.45

* * *

test system: HUVEC; assay: Antiangiogenic activity in human HUVEC cells assessed as inhibition of cell migration at 50 uM; type: functional
Note to self: values exactly at 90% are 1. So inhibition at 50 µM at or above 90% is 1, below is -1.

Substance: H-LRRFSTMPFMFANINNVANF-OH
Classification: 1

Substance: H-LRRFSTMPFMF-OH
Classification: -1

Substance: H-LRRFSTMP-OH
Classification: -1

Substance: H-LRRFSTMPFMFININNVINF-OH
Classification: 1

Substance: H-LRRFSTMPFMFTNINNVTNF-OH
Classification: 1

Substance: H-LRRFSTMPFMFVNINNVVNF-OH
Classification: 1

Q) Item H-LNRFSTMPF-OH with inhibition at 50 µM of 90% or above?
A) -1

* * *

tested on: HUVEC; experiment: Antiangiogenic activity in human HUVEC cells assessed as inhibition of cell adhesion at 100 uM upto 3 hrs by migration assay; format: functional
Square brackets hold non-standard residues; d marks the D form. Peptide text beside a SMILES is read from it. Abu = CC[C@H](N)C(=O)O
inhibition at 100 µM values, listed per item
State the answer as a number, implicitly in %.

Examples with their reported inhibition at 100 µM follow.
Compound: CC[C@H](NC(=O)[C@@H](NC(=O)[C@H](CC(N)=O)NC(=O)[C@H](CC(N)=O)NC(=O)[C@@H](NC(=O)[C@@H](N)CC(N)=O)[C@@H](C)CC)C(C)C)C(=O)N[C@@H](CC(N)=O)C(=O)N[C@@H](Cc1ccccc1)C(=O)O (H-NINNV[Abu]NF-OH)
inhibition at 100 µM (%): 70.8
//
Compound: CC[C@H](NC(=O)[C@H](Cc1ccccc1)NC(=O)[C@H](CCSC)NC(=O)[C@@H](N)Cc1ccccc1)C(=O)N[C@@H](CC(N)=O)C(=O)N[C@H](C(=O)N[C@@H](CC(N)=O)C(=O)N[C@@H](CC(N)=O)C(=O)N[C@H](C(=O)N[C@@H](CC)C(=O)N[C@@H](CC(N)=O)C(=O)N[C@@H](Cc1ccccc1)C(=O)O)C(C)C)[C@@H](C)CC (H-FMF[Abu]NINNV[Abu]NF-OH)
inhibition at 100 µM (%): 66.2
//
Compound: CC[C@H](NC(=O)[C@@H](NC(=O)[C@H](CC(N)=O)NC(=O)[C@H](CC(N)=O)NC(=O)[C@@H](NC(=O)[C@H](CC(N)=O)NC(=O)[C@H](CC)NC(=O)[C@@H](N)Cc1ccccc1)[C@@H](C)CC)C(C)C)C(=O)N[C@@H](CC(N)=O)C(=O)O (H-F[Abu]NINNV[Abu]N-OH)
inhibition at 100 µM (%): 77.5

Please find the next compound below.
Lookup result for CC[C@H](NC(=O)[C@H](Cc1ccccc1)NC(=O)[C@H](CCSC)NC(=O)[C@H](Cc1ccccc1)NC(=O)[C@@H]1CCCN1C(=O)[C@H](CCSC)NC(=O)[C@@H](NC(=O)[C@@H](N)CO)[C@@H](C)O)C(=O)N[C@@H](CC(N)=O)C(=O)N[C@H](C(=O)N[C@@H](CC(N)=O)C(=O)N[C@@H](CC(N)=O)C(=O)N[C@H](C(=O)N[C@@H](CC)C(=O)N[C@@H](CC(N)=O)C(=O)N[C@@H](Cc1ccccc1)C(=O)O)C(C)C)[C@@H](C)CC (H-STMPFMF[Abu]NINNV[Abu]NF-OH) ; measured inhibition at 100 µM: 6.82

Cited source: ChEMBL document CHEMBL1828610
